# viability, T/C values compiled below
System: HSSY-II tumor spheroid viability
EXPERIMENTAL_PROTOCOL: Anticancer human tumor HSSY-II cell line growth inhibition;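 further: spheroids exposed to compounds for seven days before reading; percent of DMSO vehicle control viability so 100% = untreated level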
SETUP_CONDITIONS: second compound 100 µM; first compound 0.0949 µM; active compounds read low; spheroids with HUVEC and MSC
MEASURED_ENDPOINT: viability, T/C (%)

{"COMPOUND": "CNCc1ccc(-c2cc(-c3nc(-c4ccc(S(=O)(=O)C(C)C)cc4)cnc3N)on2)cc1 + Cn1nnc2c(C(N)=O)ncn2c1=O", "ENDPOINT_VALUE": 5.96}
{"COMPOUND": "Cc1sc2c(c1C)C(c1ccc(Cl)cc1)=NC(CC(=O)Nc1ccc(O)cc1)c1nnc(C)n1-2 (centres undefined) + Cn1nnc2c(C(N)=O)ncn2c1=O", "ENDPOINT_VALUE": 68.7}
{"COMPOUND": "O=C(c1cc(Cc2n[nH]c(=O)c3ccccc23)ccc1F)N1CCN(C(=O)C2CC2)CC1 + Cn1nnc2c(C(N)=O)ncn2c1=O", "ENDPOINT_VALUE": 43.4}
{"COMPOUND": "Cn1ncnc1[C@H]1c2n[nH]c(=O)c3cc(F)cc(c23)N[C@@H]1c1ccc(F)cc1 + Cn1nnc2c(C(N)=O)ncn2c1=O", "ENDPOINT_VALUE": 8.61}

* * *

Test system: HSSY-II tumor spheroid viability
EXPERIMENTAL_PROTOCOL: Anticancer human tumor HSSY-II cell line growth inhibition;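 further: spheroids exposed to compounds for seven days before reading; percent of DMSO vehicle control viability so 100% = untreated level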
SETUP_CONDITIONS: second compound 30 pM; first compound 1 µM; active compounds read low; spheroids with HUVEC and MSC
MEASURED_ENDPOINT: viability, T/C (%)

{"COMPOUND": "CC1COCCN1c1cc(-c2ccnn2C)c2ccnc(-c3ccn[nH]3)c2n1 (stereo unspecified) + COc1cc2c(cc1O)CCNC21CSC2c3c(OC(C)=O)c(C)c4c(c3C(COC1=O)N1C(O)C3Cc5cc(C)c(OC)c(O)c5C(C21)N3C)OCO4", "UNITS_OF_MEASURE": "%", "ENDPOINT_VALUE": 3.28}
{"COMPOUND": "CC(C)n1c(=O)n(C)c2cnc3cc(F)c(-c4ccc(OCCCN5CCCCC5)nc4)cc3c21 + COc1cc2c(cc1O)CCNC21CSC2c3c(OC(C)=O)c(C)c4c(c3C(COC1=O)N1C(O)C3Cc5cc(C)c(OC)c(O)c5C(C21)N3C)OCO4", "UNITS_OF_MEASURE": "%", "ENDPOINT_VALUE": 114}
{"COMPOUND": "Cc1cc(C)c(CNC(=O)c2cc(-c3ccc(CN4CCOCC4)cc3)cc3c2cnn3C2CCCC2)c(=O)[nH]1 + COc1cc2c(cc1O)CCNC21CSC2c3c(OC(C)=O)c(C)c4c(c3C(COC1=O)N1C(O)C3Cc5cc(C)c(OC)c(O)c5C(C21)N3C)OCO4", "UNITS_OF_MEASURE": "%", "ENDPOINT_VALUE": 108}
{"COMPOUND": "[2H]c1nc(C)nc([2H])c1-c1cc(NC[C@@H](C)c2cccc3c(C(=O)NC)ccnc23)ncn1 + COc1cc2c(cc1O)CCNC21CSC2c3c(OC(C)=O)c(C)c4c(c3C(COC1=O)N1C(O)C3Cc5cc(C)c(OC)c(O)c5C(C21)N3C)OCO4", "UNITS_OF_MEASURE": "%", "ENDPOINT_VALUE": 99.1}
{"COMPOUND": "COc1cc(C)[nH]c(=O)c1CN1CCc2c(Cl)cc(C(OC)C3COC3)c(Cl)c2C1=O (stereo unspecified) + COc1cc2c(cc1O)CCNC21CSC2c3c(OC(C)=O)c(C)c4c(c3C(COC1=O)N1C(O)C3Cc5cc(C)c(OC)c(O)c5C(C21)N3C)OCO4", "UNITS_OF_MEASURE": "%", "ENDPOINT_VALUE": 92.5}
{"COMPOUND": "COc1ccc([C@@H](O)c2cc(-c3ncnc4cc(N5CCOCC5)ccc34)c(F)cc2Cl)nn1 + COc1cc2c(cc1O)CCNC21CSC2c3c(OC(C)=O)c(C)c4c(c3C(COC1=O)N1C(O)C3Cc5cc(C)c(OC)c(O)c5C(C21)N3C)OCO4", "UNITS_OF_MEASURE": "%", "ENDPOINT_VALUE": 67.1}
